assay: Biochemical counterscreen for C difficile toxins, absence of UDPG, inhibitor dose response (AID 720650); conditions: series mostly up to 19.5 µM
Calls of active or inactive are those of the source. No rule for the calls is given here.
Possible outcomes: yes (1) = active, no (0) = inactive

[
  {
    "chemSmiles": "Cc1ccc(S(=O)(=O)Oc2ccccc2/C=C2/SC(=O)NC2=O)cc1",
    "assignedCategory": "no (0)"
  },
  {
    "chemSmiles": "Clc1cccc(-c2ccc3ncnc(NCc4cccs4)c3c2)c1",
    "assignedCategory": "no (0)"
  },
  {
    "chemSmiles": "Fc1ccc(/C=C\\c2nccc3c2[nH]c2ccccc23)cc1",
    "assignedCategory": "no (0)"
  },
  {
    "chemSmiles": "COCC(=O)N1CC[C@H]2[C@@H]1c1cc(-c3ccc(OC)cc3)ccc1N(C)[C@H]2CO",
    "assignedCategory": "yes (1)"
  },
  {
    "chemSmiles": "COC(=O)C1=C(c2ccc(F)cc2OCc2ccccc2)C[C@@H]2CC[C@H]1N2C(=O)N1CCCC1",
    "assignedCategory": "no (0)"
  }
]

* * *

test: Biochemical counterscreen for C difficile toxins, absence of UDPG, inhibitor dose response (AID 720650); settings: series mostly up to 19.5 µM
The source made the active and inactive calls. How the calls were made is not given here.
Possible outcomes: active, inactive

[
  {
    "chemSmiles": "O=C(C1CCOCC1)N1CC[C@@H]2[C@@H](CO)Nc3ccc(-c4ccc(F)cc4)cc3[C@@H]21",
    "assignedCategory": "active"
  },
  {
    "chemSmiles": "COc1ccc(C2=NS(=O)(=O)N(C)C(C(=O)N(C)Cc3ccccc3)=C2)cc1OC",
    "assignedCategory": "inactive"
  },
  {
    "chemSmiles": "Cc1cc(C)c(NS(=O)(=O)c2cccc3cccnc23)c(C)c1",
    "assignedCategory": "inactive"
  },
  {
    "chemSmiles": "COC(=O)[C@@]12CCCCN1[C@H](c1ccc(-c3ccccc3)c(OC)c1)[C@H]1C(=O)N(C)C(=O)[C@H]12",
    "assignedCategory": "inactive"
  },
  {
    "chemSmiles": "Cc1ccc(S(=O)(=O)Oc2cccc(/C=N/Nc3ccc(C(=O)O)cc3)c2)cc1",
    "assignedCategory": "inactive"
  }
]

* * *

test: Biochemical counterscreen for C difficile toxins, absence of UDPG, inhibitor dose response (AID 720650); settings: series mostly up to 19.5 µM
The source made the active and inactive calls. The rule behind the calls is not given here.
Possible outcomes: active, inactive

[
  {
    "chemSmiles": "S=c1nc(-c2ccc(Cl)cc2)[nH][nH]1",
    "assignedCategory": "active"
  },
  {
    "chemSmiles": "O=c1oc(-c2ccc(Br)cc2)nc2ccccc12",
    "assignedCategory": "inactive"
  },
  {
    "chemSmiles": "O=C(COc1ccc2ccc(=O)oc2c1)NCCN1CCOCC1",
    "assignedCategory": "inactive"
  },
  {
    "chemSmiles": "CCc1cc(-c2n[nH]c(C)c2-c2nc(C)cs2)c(O)cc1OC",
    "assignedCategory": "inactive"
  },
  {
    "chemSmiles": "COCC(=O)N1CC[C@@H]2[C@H]1c1cc(-c3cccc(OC)c3)ccc1N(C)[C@H]2CO",
    "assignedCategory": "active"
  },
  {
    "chemSmiles": "CN(C(=O)Cn1c(=O)oc2cc(S(=O)(=O)N3CCCC3)ccc21)C1CCCCC1",
    "assignedCategory": "inactive"
  },
  {
    "chemSmiles": "CN1C(=O)c2cc(NC(=O)Nc3ccccc3Cl)ccc2OC[C@H]2O[C@@H](CC(=O)NCCCN3CCOCC3)CC[C@H]21",
    "assignedCategory": "inactive"
  },
  {
    "chemSmiles": "O=C(NC(=S)Nc1ccc(O)cc1)c1ccccc1Cl",
    "assignedCategory": "active"
  },
  {
    "chemSmiles": "C[C@@H]1CN([C@@H](C)CO)C(=O)c2c(c3ccccc3n2C)-c2ccccc2CO[C@@H]1CN(C)C",
    "assignedCategory": "inactive"
  },
  {
    "chemSmiles": "CCCc1[nH]c(=O)c(C#N)c2c1CCCC2",
    "assignedCategory": "inactive"
  }
]
